Test: yeast display, Sf9 membrane polyspecificity reagent, FACS + sequencing; frameworks hold sequencing errors
Readout label: polyreactivity (PSR sort gate)

Below are worked cases with known answers.
{"Sequence chain": "QVQLVESGGGLVQAGGSLRLSCSASGITYGGNEMGWYRQAPGTESELVAGIDDGGSTNYADSVKGRFTISRDNAKNTVYLQMNSLKPEDTAVYYCAVQGHPPLGILPGFLFDYWGQGTQVTVSS", "polyreactivity (PSR sort gate)": "low polyreactivity"}
{"Sequence chain": "QVQLVESGGGLVQAGGSLRLSCAASGSTFGGYAMGWYRQAPAKERELVAAISTSGGNTYYADSVKGRFTISRDNAKNTVYLQMNRLKPEDTAVYYCARDRVSWGGQDSWGQGTQVSVSS", "polyreactivity (PSR sort gate)": "high polyreactivity"}
{"Sequence chain": "QVQLVESGGGLVQAGGRLRRICAASGRIYSRYTMGWYRQAPGKERQLVAVITSGGSTYYADSVKGRFTISRDNAKNTVYLQMNSLKPDDTAVYYCNAVRFTYGGYLRRYDYWGHGTQVTVSS", "polyreactivity (PSR sort gate)": "high polyreactivity"}
{"Sequence chain": "QVQLVESGGGLVQAGGSLRLSCAASGSIFSFYAMGWYRQAPGKERELVAAISRSGGSTYYADSVKGRFTISRDNAKNTVYLQMNSLKPEDTAVYYCAADYYYGTYDYWGQGTQVTVSS", "polyreactivity (PSR sort gate)": "low polyreactivity"}
{"Sequence chain": "PVQLQESGGGLVQAGGSLRLSCAESGNIFDADIMGWYRQAPGKERELVDCIADGGSTNYADSVKGSFTISRDNAKITVYLQMNSLKPEDTAVYYCAAIAYPDIPTCFDYDSDYFFRGQGTQVTVSS", "polyreactivity (PSR sort gate)": "low polyreactivity"}

Entry QVQLVESGGGLVQAGGSLPLSCAASGITFHRYAMGWDRQAPGKERELVAAMSRGASTNYADSVKGRFTISRDNAKNTVYLQMNSLKPEDTAVYYCAARTIGWYSGSRFDYWGQCTQVTVSS : reported polyreactivity (PSR sort gate) = ?
high polyreactivity

Entry QVQLVESGGGLVQAGGSLRLSCAASGITFPGNVMGWYRQAPGKERELVAAISTSGGSTYYADSVKGRFTISRDNAKNTVYLQMNSLKPEDTAVYYCARQYIRSSYGYWGQGTQVTVSS : reported polyreactivity (PSR sort gate) = ?
low polyreactivity

Entry QVQLVESGGGLVQAGGTLRLSCAASRITFWYYARGWYIQAPGKERELVAAITSGGSTYYADSVKGRFTISRDNAKNTVYLQMNSLKPEDTAVYYCAKDSVWGAKNLTSYKYYYWGQGTQVTGSS : reported polyreactivity (PSR sort gate) = ?
low polyreactivity

----------
Assay: yeast display, Sf9 membrane polyspecificity reagent, FACS + sequencing; frameworks hold sequencing errors
Readout label: polyreactivity (PSR sort gate)

{"Sequence chain": "QVQLVESGGGLVQAGGSLRLSCAASGSTFVRNAMGWYRQAPGKERELVAAISTRGGSTSYADSVKGRFTISRDNAKNTVYLQMNCLKPEDTAVYYCAKVHAYSQGIRHGYWGQGTQVTVSS", "polyreactivity (PSR sort gate)": "low polyreactivity"}
{"Sequence chain": "QVQLVESGGGLDQAGGSLRLSCPASGRIFPINAMGRYRQAPGKERELVAAISYSRGSTYYADSVKGRFTISRDNAKNTVYLQMNSLKPEDTAVYYCNARYPYSYYHRYYYWGQGTQVSVSS", "polyreactivity (PSR sort gate)": "high polyreactivity"}
{"Sequence chain": "QVQLVESGGGLVQAGGSLRLSCAASALTLRHYAMGWYRQAPGKERELVARIRISGRTYYADSVKGRFTISRDNAKNTVYLQMNSLKPEDTAVYYCAKVQFATSPPGLTLSYYYWGQGTQVTVSS", "polyreactivity (PSR sort gate)": "high polyreactivity"}
{"Sequence chain": "QVQLVESGGGLVQAGGSLRLSCAASGRIFGGYAMGWYRQAPGKERELVAAISSGGNTKYADSVKGRFTISRDNAKNTVYLQMNSLKPEDTAVYYCAAAPYARREYEYWGQVTQVTVSS", "polyreactivity (PSR sort gate)": "high polyreactivity"}
{"Sequence chain": "QVQLVESGGGLVQAGGSLRLSCAASGITFFYYAMGWYRQAPGKEMELVAAIRYYGTSTYADSVKGRFTISRDNAKNTVYLQMNSLKPEDTAVYYCAAVFWFVGSLYDYWGQGTQVTVSS", "polyreactivity (PSR sort gate)": "low polyreactivity"}

Entry QVQLVESGGGLVQAGGSLRLSCAASGFTIRWYTMGWYRQAPWKERELVATINWSGGSTYYADSVKGRFTISRDNAKNTVYLQMNSLIPEDTAVYYCARRQSGTIKTRMDYWGQGTQVTVSS : reported polyreactivity (PSR sort gate) = ?
high polyreactivity

Entry QVQLVESGGGLVQAGGSLRLSCAASGFTCPYYMGWYRQAPGKERELVADISWSDGSTYYADSVKGRFTISRDNAKNTVSLQMNSLKPEDTAVYYCAADYVSSWFYLPEYDYWGQGTQVTVSS : reported polyreactivity (PSR sort gate) = ?
high polyreactivity
